- ASSAY_COMMENT: In vivo pharmacokinetics and tissue distribution (HPLC)
- Set-up: species or system male BALB/c mice
- CONDITION_SET: male, BALB/c, mouse, kidney, intraperitoneal, 100 mg/kg body weight; 180 min after 100 mg/kg i.p., mean ± S.E.; read-out: tissue concentration, Kidneys
METRIC_NAME: concentration at 180 min (ng/g)
Answer format: numeric, ng/g implied, no suffix.

input: Which concentration at 180 min value is on record for COc1cc(/C=C/C(C)=O)ccc1O ?
output: 860

###

Recorded measurements of concentration at 30 min, one per entry
- ASSAY_COMMENT: In vivo pharmacokinetics and tissue distribution (HPLC)
- Parameters: species or system male BALB/c mice
- CONDITION_SET: male, BALB/c, mouse, lung, intraperitoneal, 100 mg/kg body weight; 30 min after 100 mg/kg i.p., mean ± S.E.; read-out: tissue concentration, Lung
- Procedure: Figure 5 Levels of serum Cur and DZG recorded in mice after receiving a single dose of Cur or DZG (100 mg/kg body weight) by intraperitoneal (i.p.) injection. Serum concentrations of Cur and DZG were determined by high-performance liquid chromatography (HPLC) using a reversed-phase C18 column (Waters). The mobile phase values were 52% acetonitrile and 48% citric buffer. […] A comparison of the pharmacokinetics between Cur and DZG was determined using seven-week-old male BALB/c mice. […]
In your response, put the unit directly after the numeric value.

> print(dat)
                           structure.smiles     result
1  COc1cc(/C=C/C(=O)CC(=O)/C=C/c2ccc(O)c(OC)c2)ccc1O  1150 ng/g

Now examine the next entry.
input: Which concentration at 30 min value is on record for COc1cc(/C=C/C(C)=O)ccc1O ?
output: 1410 ng/g

###

- ASSAY_COMMENT: In vivo pharmacokinetics and tissue distribution (HPLC)
- Set-up: species or system male BALB/c mice
- CONDITION_SET: male, BALB/c, mouse, liver, intraperitoneal, 100 mg/kg body weight; 30 min after 100 mg/kg i.p., mean ± S.E.; read-out: tissue concentration, Liver
METRIC_NAME: concentration at 30 min (ng/g)
Answer format: numeric, ng/g implied, no suffix.

> print(dat)
                         molecule  result.number
1  COc1cc(/C=C/C(C)=O)ccc1O [DZG]            920

Now examine the next entry.
input: Which concentration at 30 min value is on record for COc1cc(/C=C/C(=O)CC(=O)/C=C/c2ccc(O)c(OC)c2)ccc1O [Cur, Curcumin] ?
output: 2600

###

- ASSAY_COMMENT: In vivo pharmacokinetics and tissue distribution (HPLC)
- Set-up: species or system male BALB/c mice
- CONDITION_SET: male, BALB/c, mouse, serum, ip; single dose 100 mg/kg i.p., mice; read-out: time to maximum serum concentration after i.p. administration
METRIC_NAME: Tmax

> print(dat)
                         molecule  metric.name    result
1  COc1cc(/C=C/C(C)=O)ccc1O [DZG]         Tmax  ≤ 30 min

Now examine the next entry.
input: Which Tmax value is on record for COc1cc(/C=C/C(=O)CC(=O)/C=C/c2ccc(O)c(OC)c2)ccc1O [Cur, Curcumin] ?
output: ≤ 30 min

###

- ASSAY_COMMENT: In vivo pharmacokinetics and tissue distribution (HPLC)
- Set-up: species or system male BALB/c mice
- CONDITION_SET: male, BALB/c, mouse, kidney, intraperitoneal, 100 mg/kg body weight; 30 min after 100 mg/kg i.p., mean ± S.E.; read-out: tissue concentration, Kidneys
Recorded measurements of concentration at 30 min, one per entry
Answer format: numeric, ng/g implied, no suffix.

> print(dat)
                                   molecule              metric.name  result.number
1  COc1cc(/C=C/C(=O)CC(=O)/C=C/c2ccc(O)c(OC)c2)ccc1O [Cur, Curcumin]  concentration at 30 min           1010

Now examine the next entry.
input: Which concentration at 30 min value is on record for COc1cc(/C=C/C(C)=O)ccc1O [DZG] ?
output: 5920
